- System: human lung cancer cell line A549
- ASSAY_DETAILS: MTT-based cytotoxicity
- Assay type: cell-based
- PARTICULARS: Homo sapiens, A549; MTT assay
REPORTED_METRIC: IC50 (µg/mL)

{"COMPOUND": "CC(=NNC(=O)COC(=O)c1ccc(-n2cccc2)cc1)c1cccc(Br)c1", "SIGN": "=", "READING": 275}
{"COMPOUND": "NNC(=O)c1ccncc1 [Isoniazid, reference compound]", "SIGN": ">", "READING": 450}
{"COMPOUND": "CC(=NNC(=O)COC(=O)c1ccc(-n2cccc2)cc1)c1ccccc1", "SIGN": "=", "READING": 225}
{"COMPOUND": "O=C(COC(=O)c1ccc(-n2cccc2)cc1)NN=Cc1ccc(Cl)cc1", "SIGN": "=", "READING": 262}
{"COMPOUND": "O=C(OCC(=O)n1[nH]c(=O)c2c(Br)c(Br)c(Br)c(Br)c2c1=O)c1ccc(-n2cccc2)cc1", "SIGN": "=", "READING": 287}
